Measured IC50, listed per entry.
Tested on: AML12 mouse hepatocytes, cytotoxicity
Assay: AML12 mouse hepatocyte viability loss – cell-based, cytotoxicity control, SAR follow-up (AID 504443)
Calls of active or inactive are those of the source. No rule for the calls is given here.
Measured attribute: IC50

| Cpd smiles | Measured attribute | Result |
| --- | --- | --- |
| CCOc1ccc(CCNC(=O)c2cc3sccc3n2CC)cc1OC | IC50 | > 10 µM (inactive) |
| CCOc1ccc(CCNC(=O)CSc2cc(=O)n(CC)c3ccccc23)cc1OCC | IC50 | > 10 µM (inactive) |
| CCn1c(C(=O)NCc2cc(OC)c(OC)c(OC)c2)cc2ccsc21 | IC50 | > 10 µM (inactive) |
| COc1ccc(CCNC(=O)Cn2cccc2C(=O)c2ccccc2C)cc1OC | IC50 | > 10 µM (inactive) |
| CCOc1ccc(CCNC(=O)c2cc3sccc3n2C)cc1OCC | IC50 | > 10 µM (inactive) |
| CCOc1ccc(CCNC(=O)c2cc3ccsc3n2CC)cc1OC | IC50 | > 10 µM (inactive) |
| CCOc1cc(CCNC(=O)CSc2cc(=O)n(C)c3ccccc23)ccc1OC | IC50 | > 10 µM (inactive) |
| CCOc1ccc(CCNC(=O)c2cc3ccsc3n2C)cc1OC | IC50 | > 10 µM (inactive) |
| CCn1c(C(=O)NCCc2ccc(OC)c(OC)c2)cc2ccsc21 | IC50 | > 10 µM (inactive) |
| CCOc1ccc(CCNC(=O)c2cc3sccc3[nH]2)cc1OCC | IC50 | > 10 µM (inactive) |
| CCn1c(C(=O)Nc2ccc(OC)c(OC)c2)cc2ccsc21 | IC50 | > 10 µM (inactive) |

Where do these numbers come from? They come from PubChem BioAssay AID504443.
